# Organism: Homo sapiens
# test_details: Concentration required to inhibit production of TXB2 from whole blood stimulated with A-23187
# Format: functional, organism-based
Each entry below carries its reported IC50.

Consider the reported IC50 for these molecules:
>>> result("CCCCC/C=C\\C/C=C\\C/C=C\\C/C=C\\CCCC(=O)O [ARACHIDONIC ACID]")
"> 10 µM"
>>> result("COc1ccc2c(c1)c(CC(=O)O)c(C)n2C(=O)c1ccc(Cl)cc1 [INDOMETHACIN]")
"0.36 µM"

Could you now consider this next molecule?
Problem: For CCCCC/C=C\C/C=C\C/C=C\C/C=C\CCCC(=O)C(F)(F)F [ARACHIDONYL TRIFLUOROMETHYLKETONE] , write its IC50.
Result: > 10 µM
